- EXPERIMENT SUMMARY: Metabolic stability in human serum assessed as compound remaining at 3 mM after 72 hrs by HPLC analysis
- Assay type: ADME, cell-free
- DETAILS: read-out: Stability
ASSAY ENDPOINT: remaining at 72 h, 3000 µM (%)

CC(C)C[C@@H](NC(=O)[C@@H](CC(=O)O)NC(=O)[C@@H](CCC(=O)O)NC(=O)[C@H](NC(=O)[C@@H](CC(C)C)NC(=O)[C@@H](CCC(=O)O)NC(=O)C(C)(C)NC(=O)[C@@H](Cc1c[nH]c2ccccc12)NC(=O)[C@H](NC(=O)[C@H](N)CC(=O)O)[C@@H](C)O)C(C)C)C(=O)N[C@H](CC(N)=O)C(=O)NCC(=O)NCC(=O)NCC(=O)N[C@@H](CO)C(=O)N[C@@H](Cc1ccc(Br)cc1)C(=O)N[C@@H](CCCNC(=N)N)C(N)=O    36

Reference source: ChEMBL document CHEMBL4184127
